Molecular target: T1, recombinant extracellular domain protein of human DLL3 (h.DLL3-ECD-His) (human, UniProt Q9NYJ7 27-492)
T1 construct: extracellular domain; Commercial protein; also called human DLL3 antigen; not shown: His tag
T1 sequence (looked up): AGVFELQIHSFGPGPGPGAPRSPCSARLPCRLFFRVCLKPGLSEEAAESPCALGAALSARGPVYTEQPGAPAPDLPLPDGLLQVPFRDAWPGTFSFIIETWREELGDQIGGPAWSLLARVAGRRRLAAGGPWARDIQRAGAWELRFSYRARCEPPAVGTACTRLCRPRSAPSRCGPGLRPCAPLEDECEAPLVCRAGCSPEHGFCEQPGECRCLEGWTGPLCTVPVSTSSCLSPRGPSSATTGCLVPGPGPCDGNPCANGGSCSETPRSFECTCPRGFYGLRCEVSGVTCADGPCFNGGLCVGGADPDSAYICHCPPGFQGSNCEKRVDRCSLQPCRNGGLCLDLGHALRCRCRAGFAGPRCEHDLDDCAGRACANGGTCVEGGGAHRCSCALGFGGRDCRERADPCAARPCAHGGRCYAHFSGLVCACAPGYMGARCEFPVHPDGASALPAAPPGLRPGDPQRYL
Assay: BLI (ForteBio), antibody on ProA sensor, hDLL3-ECD-His in solution
# koff annotations
Response body: numeric value in s⁻¹, unit text excluded.

Solved cases (4 shown):
{"columns": ["Binder", "Unit text", "Observed"],
 "data": [
  ["6F11C10-Hz1 antibody (antibody, human IgG1, kappa, V domains shown, Humanized IgG1/kappa) VH: EVQLVQSGAEVKKPGASVKVSCKASGFTFTDYYMHWVRQAPGQSLEWMGLVYPYNGDISYAQKFQGRVTLTVDTSISTAYMELSRLRSDDTAVYYCARQGNYVNNAIDYWGQGTLVTVSS VL: DIQMTQSPSSLSASVGDRVTITCKASQNVGNIIAWYQQKPGKSPKALIYLASYRYSGVPSRFSGSGSGTDFTLTISSLQPEDVATYFCQQYSDSPYTFGQGTKVEIKR", "s⁻¹", "4.27e-05"],
  ["10F2F3-Hz antibody (antibody, human IgG1, kappa, V domains shown, Humanized) VH: QVQLVESGAEVKKPGSSVKVSCKASGYAFSSHWVNWVRQAPGQGLEWMGQIYPGNGDTNYAQKFQGRVTLTADKSTSTAYMELSSLTSEDTAVYFCARWFAYWGQGTLVTVSS VL: DIQMTQSPSSLSASVGDRVTITCKSSQSLLDGGNQKNYLAWYQQKPGKPPKLLVYFASIRESGVPSRFSGSGSGTDFTLTISSLQPEDFATYYCQQHYNTPWTFGQGTKVEIKR", "s⁻¹", 0.00045],
  ["87F7F10-Hz (antibody, human IgG1, kappa, V domains shown, Humanized; also called 87F7F10-hz1) VH: QVQLQESGPGLVKPSETLSLTCTVSGYSITSDFYWNWIRQPPGKGLEWIGYITYDGSTNYNPSLKSRVTISRDTSKNQFSLKLSSVTAADTAVYYCVYGDFNRHAMDYWGQGTLVTVSS VL: DIVMTQSPDSLAVSLGERATINCRSSQSLFNSRTRKNYLAWYQQKPGQPPKVLIYWASTRESGVPDRFSGSGSGTDFTLTISSLQAEDVAVYYCEQSFYLFTFGQGTKVEIKR", "s⁻¹", 0.000218],
  ["55C11E4-Hz1 (antibody, human IgG1, kappa, V domains shown, Humanized IgG1/kappa) VH: EVQLVQSGAEVKKPGASVKVSCKASGYTFTDYYMNWVRQAPGQRLEWMGVINPYNGGTNYSQKFQGRVTLTVDKSASTAYMELSSLRSEDTAVYYCARDSNYVGLLDYWGQGTLVTVSS VL: DIVLTQSPATLSLSPGERATLSCRASQSISNNLHWYQQKPGQAPRLLIKYASQSISGIPARFSGSGSGPDFTLTISSLEPEDFAVYFCQQSNSWPYTFGQGTKVEIKR", "s⁻¹", 0.000652]
]}

Proceeding to the next binder to report its koff.
// 59B10D3-Hz antibody (antibody, human IgG1, kappa, V domains shown, Humanized; also called 59B10D3-hz1) VH: EVQLVESGGGLVQPGGSLRLSCAASGFTFSDAWMDWVRQAPGKGLEWVAEIRNKANNHATYYVDSVKGRFTISRDDAKNSVYLQMNSLRAEDTAVYYCTRNNYGSTWTYYAMDYWGQGTLVTVSS VL: DIQMTQSPSSLSASVGDRVTITCRASQDISNYLNWYQQKPGKAVKLLIYYTSRLHSGVPSRFSGSGSGTDYTLTISSLQPEDFATYYCQQGYTLPLTFGQGTKVEIKR : koff value = 0.0017
